# Assay system: ΔF508-CFTR (Homo sapiens, UniProt P13569, DEL508-508)
# Sequence (P13569 with tags, fused parts or gaps DEL508-508): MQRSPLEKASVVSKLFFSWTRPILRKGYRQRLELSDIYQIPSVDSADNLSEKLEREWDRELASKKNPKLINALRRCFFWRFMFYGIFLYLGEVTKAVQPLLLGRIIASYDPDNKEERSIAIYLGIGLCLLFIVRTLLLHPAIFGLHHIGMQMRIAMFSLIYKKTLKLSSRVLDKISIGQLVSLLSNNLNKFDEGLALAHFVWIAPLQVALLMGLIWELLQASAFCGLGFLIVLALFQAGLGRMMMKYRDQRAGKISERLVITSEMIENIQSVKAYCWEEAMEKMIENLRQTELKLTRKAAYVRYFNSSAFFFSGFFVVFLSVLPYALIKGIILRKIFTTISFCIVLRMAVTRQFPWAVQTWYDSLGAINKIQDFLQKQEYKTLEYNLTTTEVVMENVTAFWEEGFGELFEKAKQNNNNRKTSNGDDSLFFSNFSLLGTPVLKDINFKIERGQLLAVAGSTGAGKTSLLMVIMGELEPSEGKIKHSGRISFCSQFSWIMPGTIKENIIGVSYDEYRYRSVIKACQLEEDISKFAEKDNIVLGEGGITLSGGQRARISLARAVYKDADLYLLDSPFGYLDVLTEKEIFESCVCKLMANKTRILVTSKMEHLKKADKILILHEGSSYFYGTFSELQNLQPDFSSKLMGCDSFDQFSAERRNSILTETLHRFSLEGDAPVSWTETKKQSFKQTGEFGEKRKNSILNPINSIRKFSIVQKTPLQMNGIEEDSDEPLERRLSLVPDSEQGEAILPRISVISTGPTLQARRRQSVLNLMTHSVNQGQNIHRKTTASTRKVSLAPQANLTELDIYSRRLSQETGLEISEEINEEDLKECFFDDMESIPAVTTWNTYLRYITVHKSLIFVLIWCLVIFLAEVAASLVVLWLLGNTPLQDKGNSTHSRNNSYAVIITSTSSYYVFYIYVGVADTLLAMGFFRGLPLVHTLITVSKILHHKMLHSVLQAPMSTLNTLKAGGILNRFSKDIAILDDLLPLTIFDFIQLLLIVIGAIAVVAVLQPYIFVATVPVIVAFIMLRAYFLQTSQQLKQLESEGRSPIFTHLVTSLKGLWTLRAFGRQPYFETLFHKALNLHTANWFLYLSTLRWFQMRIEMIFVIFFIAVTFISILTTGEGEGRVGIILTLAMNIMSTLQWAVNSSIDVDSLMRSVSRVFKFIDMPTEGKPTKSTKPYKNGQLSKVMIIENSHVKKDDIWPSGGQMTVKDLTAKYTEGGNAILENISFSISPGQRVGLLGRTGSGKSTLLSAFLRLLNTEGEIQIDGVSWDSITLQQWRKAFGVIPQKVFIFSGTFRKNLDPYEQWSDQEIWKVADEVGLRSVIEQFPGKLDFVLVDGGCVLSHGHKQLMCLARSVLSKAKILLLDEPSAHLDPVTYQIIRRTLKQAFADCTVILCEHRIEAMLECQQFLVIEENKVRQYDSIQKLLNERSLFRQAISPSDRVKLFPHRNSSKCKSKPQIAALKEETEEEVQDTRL
# Assay summary: Membrane potential optical assay for potentiators of ΔF508-CFTR (FLIPR III, voltage sensing dyes)
# Assay conditions: temperature-corrected ΔF508 CFTR NIH 3T3 cells, forskolin activation
pEC50: −log10 of the molar value.
Metric name: pEC50

1. O=C(Nc1cc(O)c(C2CCCC2)cc1C(F)(F)F)[C@@H]1CNc2cc(OC(F)(F)F)ccc2O1: > 5.30
2. N#Cc1cc(C2CCCC2)c(O)cc1NC(=O)C1CNc2ccc(F)cc2O1 (centres unmarked): > 5.30
3. O=C(Nc1cc(O)c(C2CCCC2)cc1Cl)C1CNc2ccc(F)cc2O1 (centres unmarked): > 5.30
4. Cc1ccc(NC(=O)C2CNc3cc(OC(F)(F)F)ccc3O2)c(C#CCN2CCC(F)(F)CC2)c1 (centres unmarked): > 5.30
5. CN1CCN(c2cc(C3CCCC3)c(O)cc2NC(=O)C2CNc3cc(C#N)ccc3O2)CC1 (centres unmarked): 4.70 to 5.30
6. CN(C)CC#Cc1cc(C2CCCC2)c(O)cc1NC(=O)C1CNc2cc(C#N)ccc2O1 (centres unmarked): > 5.30
7. Cc1cccc2c1OC(C(=O)Nc1ccc(C(C)(C)C)c(O)c1)CN2 (centres unmarked): > 5.30
8. O=C(Nc1ccc(OC(F)(F)F)c(O)c1)C1CNc2ccc(F)cc2O1 (centres unmarked): > 5.30
9. O=C(Nc1ccc(C(F)(F)F)c(O)c1)C1CNc2ccccc2O1 (centres unmarked): 4.70 to 5.30
10. O=C(Nc1ccc2c(C(F)(F)F)c[nH]c2c1)C1CNc2ccccc2O1 (centres unmarked): 4.70 to 5.30
11. CC(C)(C)c1ccc(NC(=O)[C@@H]2CNc3ccc(F)cc3O2)cc1O: > 5.30
12. Cc1ccc(NC(=O)C2CNc3cc(OC(F)(F)F)ccc3O2)c(C#CCN2CCC(C(=O)O)CC2)c1 (centres unmarked): 4.70 to 5.30
13. CN(C)CCCc1cc(C2CCCC2)c(O)cc1NC(=O)C1CNc2cc(OC(F)(F)F)ccc2O1 (centres unmarked): > 5.30
14. Cc1cc(C)c(NC(=O)C2CNc3cc(OC(F)(F)F)ccc3O2)c(C#CCN(C)C)c1 (centres unmarked): > 5.30
15. CCc1ccc(NC(=O)C2CNc3cc(OC(F)(F)F)ccc3O2)c(C#CCN(C)C)c1 (centres unmarked): > 5.30
16. CC(C)(C)c1ccc(NC(=O)C2CNc3cc(F)c(F)cc3O2)cc1O (centres unmarked): > 5.30
17. CC(C)(C)c1cc(C2CCCC2)c(O)cc1NC(=O)C1CNc2cc(C#N)ccc2O1 (centres unmarked): > 5.30

* * *

Listed molecules paired with reported pEC50
# Assay system: ΔF508-CFTR (Homo sapiens, UniProt P13569, DEL508-508)
# Construct: expressed in transfected cells
# Assay summary: Membrane potential optical assay for potentiators of ΔF508-CFTR (FLIPR III, voltage sensing dyes)
# Format: cell-based
# Assay conditions: temperature-corrected ΔF508 CFTR NIH 3T3 cells, forskolin activation
pEC50: −log10 of the molar value.
Metric name: pEC50

1. CN(C)CC#Cc1cc(C2CCCC2)c(O)cc1NC(=O)[C@H]1CNc2cc(OC(F)(F)F)ccc2O1 [Compound 58]: > 5.30
2. O=C(O)Cc1cc(C2CCCC2)c(O)cc1NC(=O)C1CNc2cc(OC(F)(F)F)ccc2O1 (centres unmarked) [Compound 24]: > 5.30
3. Cc1cc(C#CCN(C)C)c(NC(=O)C2CNc3ccccc3O2)cc1F (centres unmarked) [Compound 36]: 4.70 to 5.30
4. CC(C)(C)c1ccc(NC(=O)C2CNc3ccc(F)cc3O2)cc1O (centres unmarked) [Compound 35]: > 5.30
5. N#Cc1ccc2c(c1)NCC(C(=O)Nc1cc(O)c(C3CCCC3)cc1C1CCNCC1)O2 (centres unmarked) [Compound 113]: 4.70 to 5.30
6. O=C(Nc1ccc(O)c(OC(F)(F)F)c1)C1CNc2ccc(F)cc2O1 (centres unmarked) [Compound 109]: 4.70 to 5.30
7. CC(C)c1ccc(NC(=O)C2CNc3cc(Cl)ccc3O2)c(C#CCN(C)C)c1 (centres unmarked) [Compound 60]: > 5.30
8. CC(C)(C)c1ccc(NC(=O)C2CNc3ccccc3S2(=O)=O)cc1O (centres unmarked) [Compound 121]: > 5.30
9. N#Cc1cc(C2CCCC2)c(O)cc1NC(=O)[C@H]1CNc2ccc(F)cc2O1 [Compound 17]: > 5.30
10. CC(C)Oc1c(O)cccc1NC(=O)C1CNc2ccc(F)cc2O1 (centres unmarked) [Compound 112]: 4.70 to 5.30
11. COc1ccc2c(c1)OC(C(=O)Nc1ccc(C(C)(C)C)c(O)c1)CN2 (centres unmarked) [Compound 1]: 4.70 to 5.30
12. CC1(C(=O)Nc2cc(O)c(C3CCCC3)cc2C(F)(F)F)CNc2cc(OC(F)(F)F)ccc2O1 (centres unmarked) [Compound 128]: > 5.30
13. Cc1ccc(NC(=O)C2CNc3cc(OC(F)(F)F)ccc3O2)c(C#CCN2CCCC2)c1 (centres unmarked) [Compound 73]: > 5.30
14. CC(C)Oc1ccc(NC(=O)C2CNc3ccc(F)cc3O2)cc1O (centres unmarked) [Compound 42]: 4.70 to 5.30
15. Cc1cc2c(cc1F)NCC(C(=O)Nc1cc(O)c(C(C)(C)C)cc1C(C)(C)C)O2 (centres unmarked) [Compound 6]: > 5.30
16. NCC#Cc1cc(C2CCCC2)c(O)cc1NC(=O)C1CNc2cc(OC(F)(F)F)ccc2O1 (centres unmarked) [Compound 40]: > 5.30
17. CC(C)(C)c1ccc(NC(=O)C2CNc3cccc(F)c3O2)cc1O (centres unmarked) [Compound 33]: > 5.30

* * *

# Assay system: ΔF508-CFTR (Homo sapiens, UniProt P13569, DEL508-508)
# Construct: expressed in transfected cells
# Assay summary: Membrane potential optical assay for potentiators of ΔF508-CFTR (FLIPR III, voltage sensing dyes)
# Format: cell-based
# Assay conditions: temperature-corrected ΔF508 CFTR NIH 3T3 cells, forskolin activation
Metric name: EC50

1. CC[N+](CC)(CC)CC#Cc1cc(C)ccc1NC(=O)C1CNc2cc(OC(F)(F)F)ccc2O1 (centres unmarked) [Compound 102]: 5 to 20 µM
2. CC(C)(C)c1ccc(NC(=O)C2CNc3cccc(C(F)(F)F)c3O2)cc1O (centres unmarked) [Compound 85]: < 5 µM
3. Cc1cc(C#CCN(C)C)c(NC(=O)C2CNc3cc(OC(F)(F)F)ccc3O2)cc1C (centres unmarked) [Compound 127]: < 5 µM
4. N#Cc1ccc2c(c1)NCC(C(=O)Nc1cc(O)c(C3CCCC3)cc1CN1CCNCC1)O2 (centres unmarked) [Compound 51]: 5 to 20 µM
5. Cc1ccc(NC(=O)C2CNc3cc(OC(F)(F)F)ccc3O2)c(C#CCN2CCC(N)CC2)c1 (centres unmarked) [Compound 101]: 5 to 20 µM
6. Cc1cc(F)c(NC(=O)C2CNc3ccccc3O2)cc1O (centres unmarked) [Compound 55]: < 5 µM
7. O=C(Nc1cc(O)c(C2CCCC2)cc1C#CCN1CCCC1)C1CNc2cc(OC(F)(F)F)ccc2O1 (centres unmarked) [Compound 22]: < 5 µM
8. CC1(c2cc(F)c(NC(=O)C3CNc4ccc(F)cc4O3)cc2O)CCCCC1 (centres unmarked) [Compound 68]: < 5 µM
9. O=C(Nc1cc(O)c(C2CCCC2)cc1C#CCO)C1CNc2cc(OC(F)(F)F)ccc2O1 (centres unmarked) [Compound 12]: < 5 µM
10. O=C(Nc1cc(O)c(C2CCCC2)cc1C(F)(F)F)[C@H]1CNc2cc(OC(F)(F)F)ccc2O1 [Compound 32]: < 5 µM
11. Cc1cc2c(cc1F)NCC(C(=O)Nc1cc(O)c(C3CCCC3)cc1C#CCN(C)C)O2 (centres unmarked) [Compound 124]: < 5 µM
12. N#Cc1ccc2c(c1)NCC(C(=O)Nc1cc(O)c(C3CCCC3)cc1C1=CCNCC1)O2 (centres unmarked) [Compound 11]: 5 to 20 µM
13. Cc1cc(C2CCCC2)c(O)cc1NC(=O)C1CNc2ccc(F)cc2O1 (centres unmarked) [Compound 21]: < 5 µM
14. Cc1cc(C#CC(=O)O)c(NC(=O)C2CNc3cc(OC(F)(F)F)ccc3O2)cc1O (centres unmarked) [Compound 96]: < 5 µM
15. O=C(Nc1cc(O)c(C2CCCC2)cc1CN1CCCCC1)C1CNc2ccccc2O1 (centres unmarked) [Compound 3]: < 5 µM
16. CN(C)CC#Cc1cc(C2CCCC2)c(O)cc1NC(=O)C1CNc2cc(OC(F)(F)F)ccc2O1 (centres unmarked) [Compound 106]: < 5 µM
17. Cc1ccc2c(c1)OC(C(=O)Nc1cc(O)c(C3(C)CCCCC3)cc1F)CN2 (centres unmarked) [Compound 2]: < 5 µM
